This section presents compounds with their documented inhibition at 1 µM values.
# procedure.details: Inhibition of glucagon-induced glucose secretion in C57BL/6 mouse primary hepatocytes at 1 uM
# Assay type: functional
# assay.context: C57BL/6, Hepatocyte
outcome.measure: inhibition at 1 µM (%)

{"compound": "CC(C)(C)N(Cc1ccc(F)cc1)CC(O)COc1cccc2[nH]ccc12 (stereo not drawn)", "outcome.measure": "inhibition at 1 µM", "unit": "%", "observed.value": 52.2}
{"compound": "Cc1ccc(CN(CCCOc2cccc3[nH]ccc23)C(C)(C)C)cc1", "outcome.measure": "inhibition at 1 µM", "unit": "%", "observed.value": 28.3}
{"compound": "Cc1ccc(CN(CC(O)COc2ccncc2)C(C)(C)C)cc1 (stereo not drawn)", "outcome.measure": "inhibition at 1 µM", "unit": "%", "observed.value": 41.4}

* * *

# procedure.details: Inhibition of glucagon-induced glucose secretion in C57BL/6 mouse primary hepatocytes at 1 uM
# Type: functional
# assay.context: C57BL/6, Hepatocyte
outcome.measure: inhibition at 1 µM (%)

{"compound": "Cc1cccc(CN(CC(O)COc2cccc3[nH]ccc23)C(C)(C)C)c1 (stereo not drawn)", "outcome.measure": "inhibition at 1 µM", "observed.value": 62.6}
{"compound": "Cc1ccc(CN(CC(O)COc2ccccc2)C(C)(C)C)cc1 (stereo not drawn)", "outcome.measure": "inhibition at 1 µM", "observed.value": 32.3}
{"compound": "COc1ccc(CN(CC(O)COc2cccc3[nH]ccc23)C(C)(C)C)cc1 (stereo not drawn)", "outcome.measure": "inhibition at 1 µM", "observed.value": 30.1}
{"compound": "Cc1ccc(CN(CC(O)COc2cccc(C)c2)C(C)(C)C)cc1 (stereo not drawn)", "outcome.measure": "inhibition at 1 µM", "observed.value": 31.5}
{"compound": "CC(C)(C)c1ccc(CN(CC(O)COc2cccc3[nH]ccc23)C(C)(C)C)cc1 (stereo not drawn)", "outcome.measure": "inhibition at 1 µM", "observed.value": 47.3}
{"compound": "Cc1ccc(CN(CC(O)COc2cccc3[nH]ccc23)C2CC2)cc1 (stereo not drawn)", "outcome.measure": "inhibition at 1 µM", "observed.value": 37.8}
{"compound": "Cc1ccc(CN(CC(O)CNc2cccc3cc[nH]c23)C(C)(C)C)cc1 (stereo not drawn)", "outcome.measure": "inhibition at 1 µM", "observed.value": 35.1}
{"compound": "Cc1ccc(CN(CC(O)COc2cccc3ccccc23)C(C)(C)C)cc1 (stereo not drawn)", "outcome.measure": "inhibition at 1 µM", "observed.value": -2.73}
